Molecular target: MKRN2 (UniProt Q9H000)
Sequence: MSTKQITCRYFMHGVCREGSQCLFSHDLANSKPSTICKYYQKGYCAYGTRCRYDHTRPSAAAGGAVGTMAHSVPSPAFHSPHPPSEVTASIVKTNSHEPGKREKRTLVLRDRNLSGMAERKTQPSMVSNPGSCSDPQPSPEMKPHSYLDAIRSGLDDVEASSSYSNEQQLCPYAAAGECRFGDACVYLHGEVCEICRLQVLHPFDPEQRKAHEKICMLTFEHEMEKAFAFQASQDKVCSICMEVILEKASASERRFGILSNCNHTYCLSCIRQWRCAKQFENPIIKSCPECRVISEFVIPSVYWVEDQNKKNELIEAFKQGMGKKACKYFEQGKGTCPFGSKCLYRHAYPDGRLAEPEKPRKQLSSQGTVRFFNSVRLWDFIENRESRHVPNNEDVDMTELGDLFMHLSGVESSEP
Assay: EC50 of free RNA motif oligo competing protein binding to immobilised probe
Outcome measure: EC50 (µM)
Answers are plain numbers, in µM.

Query string: Which value of EC50 has been reported for AAUAAA in the records?
Result string: 3.55

----------
Molecular target: LSM4 (UniProt Q9Y4Z0)
Sequence: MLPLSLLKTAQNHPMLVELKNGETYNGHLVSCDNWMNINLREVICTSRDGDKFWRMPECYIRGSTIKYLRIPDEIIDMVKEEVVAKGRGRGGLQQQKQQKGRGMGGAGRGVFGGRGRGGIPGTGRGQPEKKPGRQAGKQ
Assay: EC50 of free RNA motif oligo competing protein binding to immobilised probe
Outcome measure: pEC50
Give bare numbers, as −log10 of the molar value.

{"Sequence chain": "AAUAAA", "pEC50": 6.33}

Next, consider the following sequence.
Query string: So what's the measured pEC50 for this one? UAUUUAU
Result string: 6.22

----------
Biological target: SRSF4 (UniProt Q08170)
Sequence: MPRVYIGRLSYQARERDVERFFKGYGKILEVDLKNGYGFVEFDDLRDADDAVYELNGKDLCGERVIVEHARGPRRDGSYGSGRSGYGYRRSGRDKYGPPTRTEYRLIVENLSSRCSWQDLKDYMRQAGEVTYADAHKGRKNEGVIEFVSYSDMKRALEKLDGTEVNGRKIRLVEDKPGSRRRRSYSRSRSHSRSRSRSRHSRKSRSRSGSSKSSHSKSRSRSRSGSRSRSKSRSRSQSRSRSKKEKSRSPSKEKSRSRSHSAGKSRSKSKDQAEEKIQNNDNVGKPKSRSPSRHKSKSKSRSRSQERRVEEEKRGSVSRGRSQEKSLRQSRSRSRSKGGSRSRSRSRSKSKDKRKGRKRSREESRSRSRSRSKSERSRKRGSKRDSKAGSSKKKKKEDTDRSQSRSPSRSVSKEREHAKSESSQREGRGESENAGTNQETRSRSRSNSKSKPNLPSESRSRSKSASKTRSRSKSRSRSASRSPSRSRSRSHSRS
Experiment: Kd (EC50 corrected by depletion factor)
Outcome measure: Kd (nM)
Numbers only, in nM.

Query string: Can you share its Kd? I mean this sequence: CUGUCCU
Result string: 312

----------
Target: RPS17 (UniProt P08708)
Assay: EC50 of free RNA motif oligo competing protein binding to immobilised probe
Outcome measure: EC50
Remember to put the unit after the number in your answer.

Query string: Need EC50 of AAUAAA , thanks.
Result string: 128 nM

----------
Biological target: PARP12 (UniProt Q9H0J9)
Sequence: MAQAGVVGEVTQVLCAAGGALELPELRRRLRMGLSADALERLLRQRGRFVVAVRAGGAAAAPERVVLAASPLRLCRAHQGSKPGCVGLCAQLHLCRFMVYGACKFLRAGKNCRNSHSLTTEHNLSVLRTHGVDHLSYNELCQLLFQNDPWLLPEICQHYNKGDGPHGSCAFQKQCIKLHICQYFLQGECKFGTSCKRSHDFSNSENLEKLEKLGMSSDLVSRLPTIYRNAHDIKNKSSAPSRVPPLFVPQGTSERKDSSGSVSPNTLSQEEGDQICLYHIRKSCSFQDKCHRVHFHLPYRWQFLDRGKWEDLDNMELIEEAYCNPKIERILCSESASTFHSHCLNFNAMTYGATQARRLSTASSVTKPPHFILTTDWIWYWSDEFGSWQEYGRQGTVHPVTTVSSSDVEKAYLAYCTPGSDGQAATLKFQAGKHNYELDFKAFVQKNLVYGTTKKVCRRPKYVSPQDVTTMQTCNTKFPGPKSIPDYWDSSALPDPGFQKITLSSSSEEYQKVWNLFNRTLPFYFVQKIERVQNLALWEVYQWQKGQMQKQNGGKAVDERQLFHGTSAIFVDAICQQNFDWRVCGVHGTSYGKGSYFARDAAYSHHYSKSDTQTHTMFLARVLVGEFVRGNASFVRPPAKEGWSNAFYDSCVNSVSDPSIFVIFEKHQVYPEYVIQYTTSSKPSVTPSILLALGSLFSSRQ
Test: Kd (EC50 corrected by depletion factor)
Outcome measure: pKd
One number for each entry, as −log10 of the molar value.

Query string: Give its pKd value. Item: AAUAAA
Result string: 5.27

----------
Target: PUF60 (UniProt Q9UHX1)
Sequence: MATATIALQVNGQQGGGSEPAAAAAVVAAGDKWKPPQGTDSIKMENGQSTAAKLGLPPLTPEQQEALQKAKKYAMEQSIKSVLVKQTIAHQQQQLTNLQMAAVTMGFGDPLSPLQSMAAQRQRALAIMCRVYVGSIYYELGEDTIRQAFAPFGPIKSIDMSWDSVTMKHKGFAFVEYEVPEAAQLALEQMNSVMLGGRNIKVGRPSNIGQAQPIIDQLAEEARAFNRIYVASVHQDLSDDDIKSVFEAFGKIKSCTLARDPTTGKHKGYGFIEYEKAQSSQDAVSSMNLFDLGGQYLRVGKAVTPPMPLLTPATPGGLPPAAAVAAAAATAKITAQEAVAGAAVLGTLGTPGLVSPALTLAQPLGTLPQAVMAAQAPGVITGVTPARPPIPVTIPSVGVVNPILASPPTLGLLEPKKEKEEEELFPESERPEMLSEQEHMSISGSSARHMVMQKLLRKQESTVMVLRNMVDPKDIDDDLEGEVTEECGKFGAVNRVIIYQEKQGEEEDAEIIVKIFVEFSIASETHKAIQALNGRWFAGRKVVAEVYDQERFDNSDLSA
Assay: EC50 of free RNA motif oligo competing protein binding to immobilised probe
Outcome measure: EC50 (µM)
Give bare numbers, in µM.

Query string: Endpoint output: EC50 of AAUAAA . Value?
Result string: 0.899

----------
Record form. Attribute: Kd. Fill in for each entry.
Biological target: XRN1 (UniProt Q8IZH2)
Sequence (Q8IZH2 whole entry): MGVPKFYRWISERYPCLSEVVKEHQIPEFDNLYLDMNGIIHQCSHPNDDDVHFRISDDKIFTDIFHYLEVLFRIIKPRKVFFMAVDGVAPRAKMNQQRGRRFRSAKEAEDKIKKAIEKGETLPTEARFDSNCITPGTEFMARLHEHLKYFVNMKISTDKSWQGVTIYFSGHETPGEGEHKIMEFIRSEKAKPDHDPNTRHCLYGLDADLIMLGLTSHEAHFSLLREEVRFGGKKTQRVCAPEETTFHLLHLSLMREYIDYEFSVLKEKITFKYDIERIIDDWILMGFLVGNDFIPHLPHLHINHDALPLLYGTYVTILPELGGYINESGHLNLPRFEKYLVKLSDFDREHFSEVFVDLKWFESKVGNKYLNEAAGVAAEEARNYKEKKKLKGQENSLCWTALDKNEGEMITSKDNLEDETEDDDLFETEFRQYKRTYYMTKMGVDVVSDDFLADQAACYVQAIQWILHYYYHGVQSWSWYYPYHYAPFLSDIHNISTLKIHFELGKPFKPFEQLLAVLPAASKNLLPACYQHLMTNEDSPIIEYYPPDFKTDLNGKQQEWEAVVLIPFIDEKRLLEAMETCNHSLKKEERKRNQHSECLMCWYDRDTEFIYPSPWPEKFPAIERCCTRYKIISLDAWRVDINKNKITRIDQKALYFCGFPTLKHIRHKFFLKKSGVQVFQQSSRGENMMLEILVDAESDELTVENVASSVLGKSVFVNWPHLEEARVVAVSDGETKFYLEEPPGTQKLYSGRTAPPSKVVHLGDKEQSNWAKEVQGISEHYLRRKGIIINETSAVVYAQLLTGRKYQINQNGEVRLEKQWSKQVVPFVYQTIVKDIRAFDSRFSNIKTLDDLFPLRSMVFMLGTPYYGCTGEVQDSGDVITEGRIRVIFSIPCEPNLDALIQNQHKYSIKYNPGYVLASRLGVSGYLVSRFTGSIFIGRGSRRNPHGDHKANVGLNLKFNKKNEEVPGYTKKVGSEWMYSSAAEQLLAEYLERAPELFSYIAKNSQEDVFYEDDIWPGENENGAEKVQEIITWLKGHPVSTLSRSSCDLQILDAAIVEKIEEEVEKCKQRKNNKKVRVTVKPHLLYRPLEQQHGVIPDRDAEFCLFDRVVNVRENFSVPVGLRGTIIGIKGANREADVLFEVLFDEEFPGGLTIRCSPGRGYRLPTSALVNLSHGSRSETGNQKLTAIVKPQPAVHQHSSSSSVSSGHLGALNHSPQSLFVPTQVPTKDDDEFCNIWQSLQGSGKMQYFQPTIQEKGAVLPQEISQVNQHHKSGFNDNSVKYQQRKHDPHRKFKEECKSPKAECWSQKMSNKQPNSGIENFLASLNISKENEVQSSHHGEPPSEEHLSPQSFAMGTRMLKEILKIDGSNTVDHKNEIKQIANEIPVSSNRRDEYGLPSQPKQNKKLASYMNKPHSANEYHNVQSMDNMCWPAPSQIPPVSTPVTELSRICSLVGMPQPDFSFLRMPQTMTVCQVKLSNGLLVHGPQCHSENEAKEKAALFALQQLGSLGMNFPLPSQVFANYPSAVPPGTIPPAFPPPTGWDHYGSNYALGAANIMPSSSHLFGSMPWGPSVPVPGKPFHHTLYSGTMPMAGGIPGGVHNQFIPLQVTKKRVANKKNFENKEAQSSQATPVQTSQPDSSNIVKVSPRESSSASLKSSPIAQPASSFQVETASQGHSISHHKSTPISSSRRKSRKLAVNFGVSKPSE
Assay: Kd (EC50 corrected by depletion factor)
One number for each entry, in nM.

{"Sequence chain": "UAUUUAU", "Unit text": "nM", "Kd": 106}

Please find the next sequence below.
Query string: May I ask what Kd has been recorded for AAUAAA ?
Result string: 197

----------
Target: YTHDC2 (UniProt Q9H6S0)
Sequence: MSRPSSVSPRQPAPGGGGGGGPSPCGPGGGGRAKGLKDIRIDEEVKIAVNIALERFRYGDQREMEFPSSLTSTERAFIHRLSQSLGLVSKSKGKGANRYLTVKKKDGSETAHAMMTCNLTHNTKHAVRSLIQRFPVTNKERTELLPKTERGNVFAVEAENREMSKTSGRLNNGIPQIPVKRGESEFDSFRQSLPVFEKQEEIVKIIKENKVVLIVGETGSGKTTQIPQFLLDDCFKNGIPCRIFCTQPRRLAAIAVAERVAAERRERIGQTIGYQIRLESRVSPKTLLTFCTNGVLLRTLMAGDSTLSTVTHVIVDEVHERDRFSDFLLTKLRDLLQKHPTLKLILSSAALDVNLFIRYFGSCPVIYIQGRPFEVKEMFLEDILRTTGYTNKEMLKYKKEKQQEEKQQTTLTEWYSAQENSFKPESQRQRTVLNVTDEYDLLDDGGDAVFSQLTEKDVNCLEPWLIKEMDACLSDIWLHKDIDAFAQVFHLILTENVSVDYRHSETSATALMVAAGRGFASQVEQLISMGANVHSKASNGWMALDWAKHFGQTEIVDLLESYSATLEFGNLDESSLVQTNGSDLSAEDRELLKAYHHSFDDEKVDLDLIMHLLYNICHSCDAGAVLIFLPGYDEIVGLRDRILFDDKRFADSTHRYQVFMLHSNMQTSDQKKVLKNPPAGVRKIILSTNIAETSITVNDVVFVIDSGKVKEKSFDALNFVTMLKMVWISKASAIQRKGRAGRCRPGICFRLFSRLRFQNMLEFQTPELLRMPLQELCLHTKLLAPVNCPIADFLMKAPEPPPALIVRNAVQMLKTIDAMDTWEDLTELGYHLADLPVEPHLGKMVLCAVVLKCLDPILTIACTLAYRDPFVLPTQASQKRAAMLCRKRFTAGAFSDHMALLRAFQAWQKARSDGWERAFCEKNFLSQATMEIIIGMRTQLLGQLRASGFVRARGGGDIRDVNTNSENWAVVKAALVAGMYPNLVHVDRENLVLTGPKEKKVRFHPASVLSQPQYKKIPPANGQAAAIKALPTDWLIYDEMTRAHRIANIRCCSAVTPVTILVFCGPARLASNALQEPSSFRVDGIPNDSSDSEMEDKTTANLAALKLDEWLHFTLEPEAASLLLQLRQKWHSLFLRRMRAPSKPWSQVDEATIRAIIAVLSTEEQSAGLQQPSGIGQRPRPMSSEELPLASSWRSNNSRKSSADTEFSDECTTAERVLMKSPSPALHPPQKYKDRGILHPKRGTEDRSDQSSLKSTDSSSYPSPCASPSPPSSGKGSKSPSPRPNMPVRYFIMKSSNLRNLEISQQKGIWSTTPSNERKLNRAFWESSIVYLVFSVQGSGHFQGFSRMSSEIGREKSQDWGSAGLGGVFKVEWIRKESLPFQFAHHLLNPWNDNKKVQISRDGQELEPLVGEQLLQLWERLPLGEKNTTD
Test: Kd (EC50 corrected by depletion factor)
Outcome measure: Kd (nM)
Answers are plain numbers, in nM.

Query string: I'd like to know its Kd. The sequence in question is CUGUCCU
Result string: 986
